# System: Cav1.2 (L-dihydropyridine site)
# measurementNotes: CEREP panel binding inhibition
parameter: inhibition at 10 µM

Input line: Provide measured inhibition at 10 µM on Cav1.2 (L-dihydropyridine site) for COc1ccc(OC)c(NC(=O)c2nnn(Cc3ccc(Br)cc3F)c2N)c1 please.
Output line: > 75%
